These entries and their values trace back to PubChem BioAssay (NCI).

Tested on: A498 renal
assay-name: NCI tumour cell line growth inhibition, 48 h
observation-type: TGI

molecule	observation-type	result
CC(=N\N)/C(C)=N/N=C(C)/C(C)=N/N=C(C)/C(C)=N/N=C(C)/C(C)=N/N	TGI	> 100 µM
N#Cc1c(N2CCCC2)nsc1NCc1ccccc1	TGI	> 100 µM
C=C(CN(C)C)C(=O)c1ccccc1C	TGI	> 100 µM
CCOc1ccccc1NC(=O)CC1C(=O)Nc2ccccc2S1=O (stereo unspecified)	TGI	> 100 µM
CCOC(=O)NC(Nc1ncccn1)(C(F)(F)F)C(F)(F)F	TGI	> 100 µM

Here is another molecule to look at.
`NNC(=O)CSc1nc2ccc(I)cc2c(=O)n1Cc1ccccc1` tested on A498 renal gave TGI: 33.2 µM
